Exercise: for every item that follows, state its recorded TGI.
# System: SK-MEL-2 melanoma
# Test protocol: NCI tumour cell line growth inhibition, 48 h
Write the answer as a number in µM, unit excluded.

// returns reported TGI for input Nc1nc(N)c2c(n1)NC(c1ccccc1)CC(/C=C/c1ccc(Cl)cc1)=N2 (stereo not given) 42.7

Do the same for NS(=O)(=O)c1ccc(NNc2c3ccccc3nc3ccccc23)cc1 please 18.1

// query: NCCNc1nc(N2CCCC2)c2nc(Cl)c(NCc3ccccc3)nc2n1 3.37

And the next one, NC1=C(Cl)C(=O)c2ccc(S(N)(=O)=O)cc2C1=O ? 0.487

CCOC(=O)c1c(C)nc2ccc(Cl)cc2c1-c1ccccc1 , same question. 34.1

Also O=C1c2cc3c(cc2-c2c1c1ccc(Cl)cc1c(=O)n2C[C@H](O)[C@@H](O)[C@H](O)CO)OCO3 , if possible. 0.432

And then CC1(C)CCC2(C(=O)OC3OC(CO)C(O)C(O)C3O)CCC3(C)C(=CCC4C5(C)CCC(OC6OC(CO)C(O)C(O)C6O)C(C)(C)C5CCC43C)C2C1 (stereo not given) , what is it? 14.8

Repeat with O=[N+]([O-])c1ccc2c(c1)c(N=NC(=S)NC1CCCCC1)c(O)n2CN1CCOCC1 25.9

Query ClCc1ccc(-c2ccc(Cn3cnc4c(Cl)nc(Cl)nc43)cc2)cc1 next 3.42

Param item: COc1ccc(/C=C(\C#N)c2nc(N)nc(N3N=C(C)CC3(C)C)n2)c(O)c1 38.9

Can you check c1cc(OCCN2CCCCCC2)ccc1CNc1ccc2nc(CCC3CCCCC3)[nH]c2c1 next? 3.63

Next: COc1c2c(cc3c1C(O)N1CC[C@]34[C@H]3O[C@H]3[C@H](OC)C[C@@H]14)OCO2 (stereo not given in full) 83.8

# iterate: CCOC(=O)/C(=C\NCC(OCC)OCC)c1nc2ccccc2[nH]1 44.7

Can you handle CCCCCC(O)[C@H]1C(=O)C[C@@H](O[Si](C)(C)C(C)(C)C)[C@@H]1/C=C/CCOCc1ccccc1 (stereo not given in full) next? 31.2
